# Tested on: Acinetobacter baumannii
# Condition Label: Acinetobacter baumannii FADDI-AB034; broth microdilution in CAMHB; TFA salt
# Experimental: MICs of the lipopeptides (trifluoroacetic acid salt, TFA) were determined by broth microdilution in cation-adjusted Mueller-Hinton broth (CAMHB) (Oxoid Australia, Thebarton, SA, Australia) according to Clinical and Laboratory Standards Institute standards (Clinical and Laboratory Standards Institute. Performance standards for antimicrobial susceptibility testing; eighteenth informational supplement M100-S18. Wayne, Pa., 2008). Polymyxin B (sulphate) was employed as control. […]
Positions of bridges follow the written chain, without caps; N, C: chain ends. Non-standard residues stand in square brackets, D forms with d. Residues, ends and D or L forms follow the SMILES beside them. *: point of attachment. Benzoyl(3-Ph) = O=C(c1cccc(-c2ccccc2)c1)*; X3 = O=C(c1ccc(Cl)cc1Cl)*; Orn = NCCC[C@H](N)C(=O)O; Dab = NCC[C@H](N)C(=O)O; Abu = CC[C@H](N)C(=O)O; Dap = NC[C@H](N)C(=O)O
Please go through the items and note down their Minimum inhibitory concentration (MIC), Ab FADDI-AB034.
Numbers only, in µg/mL.

CC[C@@H]1NC(=O)[C@@H](CC(C)C)NC(=O)[C@H](CCN)NC(=O)[C@@H](NC(=O)[C@H](CCCN)NC(=O)[C@@H](NC(=O)[C@H](CCN)NC(=O)c2ccc(Cl)cc2Cl)[C@@H](C)O)CCNC(=O)[C@H]([C@@H](C)O)NC(=O)[C@H](CCN)NC(=O)[C@H](CCN)NC1=O [Compound 147] (X3-[Dab]T[Orn][Dab][Dab][dL][Abu][Dab][Dab]T; lactam 4-C) :: 2

Please look up its Minimum inhibitory concentration (MIC), Ab FADDI-AB034: CC[C@@H]1NC(=O)[C@@H](CC(C)C)NC(=O)[C@H](CCN)NC(=O)[C@@H](NC(=O)[C@H](CN)NC(=O)[C@@H](NC(=O)[C@H](CCN)NC(=O)c2cccc(-c3ccccc3)c2)[C@@H](C)O)CCNC(=O)[C@H]([C@@H](C)O)NC(=O)[C@H](CCN)NC(=O)[C@H](CCN)NC1=O [Compound 138] ({Benzoyl(3-Ph)}-[Dab]T[Dap][Dab][Dab][dL][Abu][Dab][Dab]T; lactam 4-C)
0.5

====

# Tested on: Pseudomonas aeruginosa
# Condition Label: Pseudomonas aeruginosa FADDI-PA022; broth microdilution in CAMHB
# Procedure: MICs of the lipopeptides (trifluoroacetic acid salt, TFA) were determined by broth microdilution in cation-adjusted Mueller-Hinton broth (CAMHB) (Oxoid Australia, Thebarton, SA, Australia) according to Clinical and Laboratory Standards Institute standards (Clinical and Laboratory Standards Institute. Performance standards for antimicrobial susceptibility testing; eighteenth informational supplement M100-S18. Wayne, Pa., 2008). Polymyxin B (sulphate) was employed as control. […]
Positions of bridges follow the written chain, without caps; N, C: chain ends. Non-standard residues stand in square brackets, D forms with d. Residues, ends and D or L forms follow the SMILES beside them. *: point of attachment. Benzoyl(3,5-Cl2) = O=C(c1cc(Cl)cc(Cl)c1)*; Benzoyl(4-Ph) = O=C(c1ccc(-c2ccccc2)cc1)*; Phenylacetyl(3-Cl) = O=C(Cc1cccc(Cl)c1)*; X23 = O=C(c1c(Cl)cc(Cl)cc1Cl)*; X4 = O=C(c1ccc(Cl)c(Cl)c1)*; X3 = O=C(c1ccc(Cl)cc1Cl)*; Dab = NCC[C@H](N)C(=O)O; Abu = CC[C@H](N)C(=O)O; Dap = NC[C@H](N)C(=O)O; PhAc = O=C(Cc1ccccc1)*
Minimum inhibitory concentration, Pa FADDI-PA022 below 1 µg/mL gives N; Minimum inhibitory concentration, Pa FADDI-PA022 at or above it gives Y.

CC(C)C[C@H]1NC(=O)[C@H](CCN)NC(=O)[C@@H](NC(=O)[C@H](CN)NC(=O)[C@@H](NC(=O)[C@H](CCN)NC(=O)Cc2cccc(Cl)c2)[C@@H](C)O)CCNC(=O)[C@H]([C@@H](C)O)NC(=O)[C@H](CCN)NC(=O)[C@H](CCN)NC(=O)[C@H]([C@@H](C)O)NC1=O [Compound 61] ({Phenylacetyl(3-Cl)}-[Dab]T[Dap][Dab][Dab][dL]T[Dab][Dab]T; lactam 4-C) :: N
CC[C@@H]1NC(=O)[C@@H](CC(C)C)NC(=O)[C@H](CCN)NC(=O)[C@@H](NC(=O)[C@H](CN)NC(=O)[C@@H](NC(=O)[C@H](CCN)NC(=O)c2cc(Cl)cc(Cl)c2)[C@@H](C)O)CCNC(=O)[C@H]([C@@H](C)O)NC(=O)[C@H](CCN)NC(=O)[C@H](CCN)NC1=O [Compound 96] ({Benzoyl(3,5-Cl2)}-[Dab]T[Dap][Dab][Dab][dL][Abu][Dab][Dab]T; lactam 4-C) :: N
CC(C)C[C@H]1NC(=O)[C@H](CCN)NC(=O)[C@@H](NC(=O)[C@H](CN)NC(=O)[C@@H](NC(=O)[C@H](CCN)NC(=O)c2cc(Cl)cc(Cl)c2)[C@@H](C)O)CCNC(=O)[C@H]([C@@H](C)O)NC(=O)[C@H](CCN)NC(=O)[C@H](CCN)NC(=O)[C@H](C)NC1=O [Compound 117] ({Benzoyl(3,5-Cl2)}-[Dab]T[Dap][Dab][Dab][dL]A[Dab][Dab]T; lactam 4-C) :: Y
CC[C@@H]1NC(=O)[C@@H](CC(C)C)NC(=O)[C@H](CCN)NC(=O)[C@@H](NC(=O)[C@H](CN)NC(=O)[C@@H](NC(=O)[C@H](CCN)NC(=O)c2ccc(Cl)cc2Cl)[C@@H](C)O)CCNC(=O)[C@H]([C@@H](C)O)NC(=O)[C@H](CCN)NC(=O)[C@H](CCN)NC1=O [Compound 82] (X3-[Dab]T[Dap][Dab][Dab][dL][Abu][Dab][Dab]T; lactam 4-C) :: N

Confirm if Minimum inhibitory concentration, Pa FADDI-PA022 reported for the compound CC[C@@H]1NC(=O)[C@@H](CC(C)C)NC(=O)[C@H](CCN)NC(=O)[C@@H](NC(=O)[C@H](CN)NC(=O)[C@@H](NC(=O)[C@H](CCN)NC(=O)c2c(Cl)cc(Cl)cc2Cl)[C@@H](C)O)CCNC(=O)[C@H]([C@@H](C)O)NC(=O)[C@H](CCN)NC(=O)[C@H](CCN)NC1=O [Compound 95] (X23-[Dab]T[Dap][Dab][Dab][dL][Abu][Dab][Dab]T; lactam 4-C) is 1 µg/mL or above.
Y

Is it the case that CC[C@@H]1NC(=O)[C@@H](CC(C)C)NC(=O)[C@H](CCN)NC(=O)[C@@H](NC(=O)[C@H](CN)NC(=O)[C@@H](NC(=O)[C@H](CCN)NC(=O)Cc2ccccc2)[C@@H](C)O)CCNC(=O)[C@H]([C@@H](C)O)NC(=O)[C@H](CCN)NC(=O)[C@H](CCN)NC1=O [Compound 78] (PhAc-[Dab]T[Dap][Dab][Dab][dL][Abu][Dab][Dab]T; lactam 4-C) has Minimum inhibitory concentration, Pa FADDI-PA022 reaching or exceeding 1 µg/mL?
N

For this compound, is measured Minimum inhibitory concentration, Pa FADDI-PA022 1 µg/mL or higher? CC[C@@H]1NC(=O)[C@@H](CC(C)C)NC(=O)[C@H](CCN)NC(=O)[C@@H](NC(=O)[C@H](CN)NC(=O)[C@@H](NC(=O)[C@H](CCN)NC(=O)c2ccc(Cl)c(Cl)c2)[C@@H](C)O)CCNC(=O)[C@H]([C@@H](C)O)NC(=O)[C@H](CCN)NC(=O)[C@H](CCN)NC1=O [Compound 71] (X4-[Dab]T[Dap][Dab][Dab][dL][Abu][Dab][Dab]T; lactam 4-C)
Y

Determine whether this compound has Minimum inhibitory concentration, Pa FADDI-PA022 no lower than 1 µg/mL: CC(C)C[C@H]1NC(=O)[C@H](CCN)NC(=O)[C@@H](NC(=O)[C@H](CCN)NC(=O)[C@@H](NC(=O)[C@H](CCN)NC(=O)c2ccc(-c3ccccc3)cc2)[C@@H](C)O)CCNC(=O)[C@H]([C@@H](C)O)NC(=O)[C@H](CCN)NC(=O)[C@H](CCN)NC(=O)[C@H]([C@@H](C)O)NC1=O [Compound 29] ({Benzoyl(4-Ph)}-[Dab]T[Dab][Dab][Dab][dL]T[Dab][Dab]T; lactam 4-C)
Y

Numbers sourced from patent USRE48335E1.
